Recorded values, source PubChem BioAssay (NCI).

# Test system: MALME-3M melanoma
Labels: active, inactive

Compound: CCCc1cc(=O)oc2c(C(=O)CC(C)C)c(O)c(CC=C(C)C)c(O)c12
Target: MALME-3M melanoma
Answer label: inactive
--
Compound: O=C(CCCn1c2c(sc3ncccc32)c(=O)n2nnc(-c3ccccc3)c12)NCCc1cnc[nH]1
Target: MALME-3M melanoma
Answer label: inactive
--
Compound: N#Cc1ccc(Oc2nccc(-c3c(-c4ccc(F)cc4)ncn3C3CCNCC3)n2)cc1
Target: MALME-3M melanoma
Answer label: inactive
--
Compound: CCOc1ccc(Cc2nccc3cc(OCC)c(OCC)cc23)cc1OCC
Target: MALME-3M melanoma
Answer label: inactive
--
Compound: CSC1=Nc2c(c(C)c(-c3ccccc3)n2COC(CO)CO)C2=NC(=O)C(C)N12 (stereo not given)
Target: MALME-3M melanoma
Answer label: inactive
--
Compound: CCOP(=O)(CCP(=O)(OCC)OCC)OCC.C[CH2][Sn]([Cl])([Cl])[CH2]C
Target: MALME-3M melanoma
Answer label: inactive
--
Compound: CCN1CCC[C@H]1c1cc(O)c2c(c1OC)C[C@H]1C[C@H]3[C@H](N)C(=O)C(C(N)=O)=C(O)[C@@]3(O)C(=O)C1=C2O
Target: MALME-3M melanoma
Answer label: active
--
Compound: Nc1nc(N)c2cc(CNc3ccc(Cl)c(Cl)c3)ccc2n1
Target: MALME-3M melanoma
Answer label: inactive
--
Compound: CCCCCCN(CCCCCC)CCCNc1nccc2ccccc12
Target: MALME-3M melanoma
Answer label: inactive
--
Compound: COc1ccc(CN2c3ccccc3Sc3ccccc32)cc1F
Target: MALME-3M melanoma
Answer label: inactive
